molecular target: CYP3A4 (Homo sapiens (Human), UniProt P08684); test: CYP3A4 inhibition assay (human liver microsomes, testosterone 6β-hydroxylation); details: read-out: CYP3A4 IC50, 40 μM testosterone
Sequence (P08684 whole entry): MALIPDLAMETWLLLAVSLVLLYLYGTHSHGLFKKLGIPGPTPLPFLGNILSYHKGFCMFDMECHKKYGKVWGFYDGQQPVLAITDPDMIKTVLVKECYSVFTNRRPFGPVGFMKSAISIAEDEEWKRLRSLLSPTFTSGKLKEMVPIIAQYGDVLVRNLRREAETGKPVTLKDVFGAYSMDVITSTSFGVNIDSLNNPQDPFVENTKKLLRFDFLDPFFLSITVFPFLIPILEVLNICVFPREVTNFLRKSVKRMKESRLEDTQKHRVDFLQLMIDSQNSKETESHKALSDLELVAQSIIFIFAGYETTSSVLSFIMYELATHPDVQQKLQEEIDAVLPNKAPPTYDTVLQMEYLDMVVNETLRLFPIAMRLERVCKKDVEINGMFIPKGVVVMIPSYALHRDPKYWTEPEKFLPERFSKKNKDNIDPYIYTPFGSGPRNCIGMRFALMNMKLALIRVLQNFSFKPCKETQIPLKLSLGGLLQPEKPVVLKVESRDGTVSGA
pIC50: −log10 of the molar value.
Each entry below lists one item and its recorded pIC50 value.

compound	qualifier_symbol	pIC50
C[C@@H]1CN(C(=O)c2cc(Cl)ccc2-n2nccn2)[C@H](Cc2cccc(-c3ncccn3)c2)CO1 [Example 113]	=	4.59
COc1cc(C(=O)N2CCOC[C@H]2Cc2cccc(-n3nccn3)c2)c(-n2nccn2)cc1C [Example 37]	=	4.77
Cc1ccc(C(=O)N2CCOC[C@H]2Cc2cc(-n3nccn3)ccc2F)c(-n2nccn2)c1C [Example 94]	=	4.52
Cc1ccc(C(=O)N2C[C@@H](C)OC[C@H]2Cc2cccc(-c3ncccn3)c2)c(-n2nccn2)c1C [Example 112]	<	4.30
C[C@@H]1CN(C(=O)c2ccccc2-n2nccn2)[C@H](Cc2cccc(-n3nccn3)c2)CO1 [Example 100]	=	4.89
Cc1ccc(-n2nccn2)c(C(=O)N2CCOC[C@H]2Cc2cccc(-c3ncccn3)c2)c1F [Example 49]	=	4.68
C[C@@H]1CN(C(=O)c2ccc(Cl)cc2-n2nccn2)[C@H](Cc2cccc(-n3nccn3)c2)CO1 [Example 185]	=	4.70
O=C(c1ccccc1-n1nccn1)N1CCOC[C@H]1Cc1cccc(-c2ncco2)c1 [Example 42]	=	5.29

====

molecular target: UniProtKB O43613; assay: In vitro intracellular calcium measurements (FLIPR), antagonistic activity on orexin-1 receptor; format: cell-based; conditions: CHO cells expressing human orexin-1 receptor; FLIPR; 3 nM orexin-A agonist; 120 min antagonist incubation; geometric mean if determined several times; read-out: IC50 OX1
Sequence (O43613 whole entry): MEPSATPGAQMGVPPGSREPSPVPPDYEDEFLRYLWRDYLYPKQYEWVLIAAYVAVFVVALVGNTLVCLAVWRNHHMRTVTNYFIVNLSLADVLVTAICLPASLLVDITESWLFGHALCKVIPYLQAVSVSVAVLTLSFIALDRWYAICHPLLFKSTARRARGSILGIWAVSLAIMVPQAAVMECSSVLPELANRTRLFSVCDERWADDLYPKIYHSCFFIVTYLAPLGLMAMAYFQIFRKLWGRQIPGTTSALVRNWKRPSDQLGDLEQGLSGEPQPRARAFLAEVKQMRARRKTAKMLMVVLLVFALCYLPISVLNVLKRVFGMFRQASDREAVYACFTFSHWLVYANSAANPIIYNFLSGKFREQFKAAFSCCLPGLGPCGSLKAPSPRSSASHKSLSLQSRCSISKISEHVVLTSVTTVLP
pIC50: −log10 of the molar value.
pIC50 values by entry

compound	pIC50
COc1ccc(C[C@@H]2COCCN2C(=O)c2ccccc2-n2nccn2)cc1-c1ncon1 [Example 59]	9.00
Cc1ccc(C(=O)N2CCOC[C@H]2Cc2cc(-c3ncon3)ccc2F)c(-n2nccn2)c1C [Example 181]	7.96
O=C(c1cc(F)c(F)cc1-n1nccn1)N1CCOC[C@H]1Cc1cccc(-c2ncon2)c1 [Example 80]	7.55
Cc1ccnc(-c2cccc(C[C@@H]3COCCN3C(=O)c3ccccc3-n3nccn3)c2)n1 [Example 40]	7.47
Cc1cc(C(=O)N2[C@H](Cc3cccc(-n4nccn4)c3)COC[C@@H]2C)c(-n2nccn2)cc1C [Example 74]	7.96
C[C@@H]1CN(C(=O)c2cccc(Cl)c2-n2nccn2)[C@H](Cc2cccc(-n3nccn3)c2)CO1 [Example 172]	8.52
Cc1cc(C(=O)N2CCOC[C@H]2Cc2cccc(-c3ncon3)c2)c(-n2nccn2)cc1C [Example 85]	9.00
O=C(c1ccccc1-n1nccn1)N1CCOC[C@H]1Cc1ccc(Cl)c(-c2ncon2)c1 [Example 90]	7.92
Cc1cc(C(=O)N2CCOC[C@H]2Cc2ccc(C)c(-c3ncon3)c2)c(-n2nccn2)cc1C [Example 79]	9.40
O=C(c1ccccc1-n1nccn1)N1CCOC[C@H]1Cc1cccc(-c2ncco2)c1 [Example 42]	7.47
COc1cc(C(=O)N2CCOC[C@H]2Cc2cc(-n3nccn3)ccc2F)c(-n2nccn2)cc1Cl [Example 139]	8.00
Cc1ccc(-n2nccn2)c(C(=O)N2CCOC[C@H]2Cc2ccc(C)c(-n3nccn3)c2)c1 [Example 65]	8.70
O=C(c1ccccc1-n1nccn1)N1CCOC[C@H]1Cc1cccc(-c2nccs2)c1 [Example 44]	8.70
COc1ccc(C[C@@H]2COCCN2C(=O)c2ccccc2-n2nccn2)cc1-c1cnccn1 [Example 6]	7.92
O=C(c1ccccc1-n1nccn1)N1CCOC[C@H]1Cc1cccc(-n2cccn2)c1 [Example 16]	7.52
Cc1cccc(C(=O)N2[C@H](Cc3cccc(-n4nccn4)c3)COC[C@@H]2C)c1-n1nccn1 [Example 72]	8.10
C[C@@H]1CN(C(=O)c2ccccc2-n2nccn2)[C@H](Cc2cc(-c3ncccn3)ccc2F)CO1 [Example 148]	7.41
C[C@@H]1CN(C(=O)c2ccccc2-n2nccn2)[C@H](Cc2cccc(-c3ncccn3)c2)CO1 [Example 108]	8.00
Cc1ccc(-n2nccn2)c(C(=O)N2CCOC[C@H]2Cc2cccc(-c3cnccn3)c2)c1 [Example 41]	8.10
Cc1ccc(C(=O)N2C[C@@H](C)OC[C@H]2Cc2cc(-c3ncccn3)ccc2F)c(-n2nccn2)c1C [Example 151]	8.10
C[C@@H]1CN(C(=O)c2ccccc2-n2nccn2)[C@H](Cc2cc(-n3nccn3)ccc2F)CO1 [Example 116]	7.68
Cc1ccc(C(=O)N2C[C@@H](C)OC[C@H]2Cc2cccc(-n3nccn3)c2)c(-n2nccn2)c1C [Example 99]	8.30
O=C(c1ccc(Cl)cc1-n1nccn1)N1CCOC[C@H]1Cc1cc(-c2ncon2)ccc1F [Example 178]	8.70
O=C(c1cccc(Cl)c1-n1nccn1)N1CCOC[C@H]1Cc1cc(-n2nccn2)ccc1F [Example 135]	7.80
O=C(c1cc(F)ccc1-n1nccn1)N1CCOC[C@H]1Cc1cccc(-n2cccn2)c1 [Example 20]	7.60
COc1cc(C(=O)N2CCOC[C@H]2Cc2cccc(-n3nccn3)c2)c(-n2nccn2)cc1C [Example 37]	8.40
Cc1cccc(C(=O)N2CCOC[C@H]2Cc2cc(Cl)cc(-n3nccn3)c2)c1-n1nccn1 [Example 106]	8.52
COc1ccc(C[C@@H]2COCCN2C(=O)c2ccccc2-n2nccn2)cc1-c1ncccn1 [Example 5]	8.40
COc1ccc(-n2nccn2)c(C(=O)N2CCOC[C@H]2Cc2cc(-n3nccn3)ccc2F)c1 [Example 131]	8.40
Cc1cccc(C(=O)N2C[C@@H](C)OC[C@H]2Cc2cccc(-c3ncccn3)c2)c1-n1nccn1 [Example 111]	8.15
COc1ccc(-n2nccn2)c(C(=O)N2CCOC[C@H]2Cc2cccc(-n3nccn3)c2)c1F [Example 33]	7.85
